Condition Info: in acetonitrile, 323.15 K
Property Measured: solubility (mole fraction)
Lab note: write the figure by itself, no unit.

Problem: Data request, read-out solubility (mole fraction), for `CCOC(=O)CCC(=O)O[C@H]1[C@H](O[C@@H]2[C@@H](C)[C@H](O[C@H]3C[C@@](C)(OC)[C@@H](O)[C@H](C)O3)[C@@H](C)C(=O)O[C@H](CC)[C@@](C)(O)[C@H](O)[C@@H](C)C(=O)[C@H](C)C[C@@]2(C)O)O[C@H](C)C[C@@H]1N(C)C`
Solution: 0.0114

====

Condition Info: in acetone, 303.15 K
Property Measured: solubility (mole fraction)
// no unit, no text: just the number

Problem: Fill in: solubility (mole fraction) of `CCOC(=O)CCC(=O)O[C@H]1[C@H](O[C@@H]2[C@@H](C)[C@H](O[C@H]3C[C@@](C)(OC)[C@@H](O)[C@H](C)O3)[C@@H](C)C(=O)O[C@H](CC)[C@@](C)(O)[C@H](O)[C@@H](C)C(=O)[C@H](C)C[C@@]2(C)O)O[C@H](C)C[C@@H]1N(C)C` is ___
Solution: 0.0268
